System: HSP70 promoter
ASSAY_NOTES: HSP70 promoter-luciferase reporter assay in HeLa-198 strain with heat shock (42°C, 2 h)
Assay type: cell-based, human
RECORDED_CONDITIONS: Homo sapiens; 50 μM; 1 h pre-culture, heat shock 42°C 2 h, recovery 37°C 2 h; 100-X vs DMSO control; read-out: Inhibition Ratio of Luciferase Induction (%)
MEASUREMENT_KIND: inhibition at 50 µM (%)
Give bare numbers, in %.

For orientation, consider the following solved cases.
CN1C2=NCCN2C(c2ccccc2)c2ccccc21 (centres unmarked) [SR-2124]	56
C=CCN1C2=NCCN2C(c2ccccc2)c2ccccc21 (centres unmarked) [SR-2125]	69
c1ccc(C2c3ccccc3N=C3NCCN32)cc1 (centres unmarked) [SR-2147]	50
Clc1ccc2c(c1)C(c1ccccc1)N1CCN(Cc3ccccc3)C1=N2 (centres unmarked) [SR-2210]	49

Let us move to another entry and its inhibition at 50 µM.
// inhibition at 50 µM value for CN1CCN2C1=Nc1ccc(Cl)cc1C2c1ccccc1 (centres unmarked) [SR-1040] : 58
